Source: paper PMC10064984

test: Fluorescent AGEs formation in a BSA-fructose/glucose system; format: biochemical; details: 250 µM; mean of 3 replicates
QUANTITY_NAME: inhibition of fluorescent AGEs formation (BSA-抗糖化), 平均 (mean) (%)
Return type: number; implicit unit %.

Task: Give reported inhibition of fluorescent AGEs formation (BSA-抗糖化), 平均 (mean) value for O=c1c(O[C@@H]2O[C@H](CO)[C@@H](O)[C@H](O)[C@H]2O)c(-c2ccc(O)cc2)oc2cc(O)cc(O)c12
Output: 47.12

Task: For the molecule O=c1cc(-c2ccc(O)cc2)oc2c(C3OCC(O)C(O)C3O)c(O)c(C3OCC(O)C(O)C3O)c(O)c12 (stereo not shown) , report inhibition of fluorescent AGEs formation (BSA-抗糖化), 平均 (mean).
Output: 47.99

Task: Tell me measured inhibition of fluorescent AGEs formation (BSA-抗糖化), 平均 (mean) for O=C(O)CC(=O)OCC1OC(Oc2c(-c3ccc(O)c(O)c3)oc3cc(O)cc(O)c3c2=O)C(O)C(O)C1O (stereo not shown) [compound 27, Quercetin 3-O-(6″-malonyl-glucoside)] please.
Output: 46.78

Task: Determine from records and report inhibition of fluorescent AGEs formation (BSA-抗糖化), 平均 (mean) for COc1cc(-c2oc3cc(O)cc(O)c3c(=O)c2OC2OC(CO)C(O)C(O)C2O)ccc1O (stereo not shown) [compound 32, Isorhamnetin-3-O-glucoside]
Output: 54.17

----------
Molecular target: COX-2 (Homo sapiens)
Construct: purchased Beyotime S0168
Sequence (P35354 18-604): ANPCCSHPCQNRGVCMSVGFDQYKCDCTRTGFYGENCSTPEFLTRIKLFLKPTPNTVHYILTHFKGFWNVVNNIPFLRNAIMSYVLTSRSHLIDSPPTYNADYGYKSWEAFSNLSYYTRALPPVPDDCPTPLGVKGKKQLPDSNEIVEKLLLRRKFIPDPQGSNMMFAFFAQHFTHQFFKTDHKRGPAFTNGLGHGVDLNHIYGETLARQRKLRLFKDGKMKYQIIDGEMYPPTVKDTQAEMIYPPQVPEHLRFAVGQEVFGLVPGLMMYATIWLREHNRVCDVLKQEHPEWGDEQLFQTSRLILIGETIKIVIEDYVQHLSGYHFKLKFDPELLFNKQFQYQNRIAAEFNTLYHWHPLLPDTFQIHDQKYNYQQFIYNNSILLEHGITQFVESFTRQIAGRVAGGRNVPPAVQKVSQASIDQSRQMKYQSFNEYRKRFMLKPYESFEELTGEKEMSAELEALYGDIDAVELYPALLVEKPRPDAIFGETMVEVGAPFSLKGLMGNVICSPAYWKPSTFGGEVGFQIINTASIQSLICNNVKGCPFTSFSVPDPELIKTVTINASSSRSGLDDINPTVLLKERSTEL
Experiment: Anti-COX-2 assay (COX-2 Inhibitor Screening Kit)
Type: biochemical
Conditions: 50 μM, single replicates
QUANTITY_NAME: inhibition at 50 µM (%)
Numeric answer only, unit % assumed.

Task: Give a short answer stating reported inhibition at 50 µM for C[C@@H]1O[C@@H](OC[C@H]2O[C@@H](Oc3c(-c4ccc(O)c(O)c4)oc4cc(O)cc(O)c4c3=O)[C@H](O)[C@@H](O)[C@@H]2O)[C@H](O)[C@H](O)[C@H]1O .
Output: 81.2

Task: Recall and state the measured inhibition at 50 µM for O=C(O)CC(=O)OCC1OC(Oc2c(-c3ccc(O)c(O)c3)oc3cc(O)cc(O)c3c2=O)C(O)C(O)C1O (stereo not drawn) [compound 27, Quercetin 3-O-(6″-malonyl-glucoside)] .
Output: 73.1

Task: Provide inhibition at 50 µM value for the following molecule: O=c1c(OC2OC(CO)C(O)C(O)C2OC2OC(CO)C(O)C(O)C2O)c(-c2ccc(O)c(O)c2)oc2cc(O)cc(O)c12 (stereo not drawn) [compound 16, Quercetin-3-O-sophoroside]
Output: 77.8

Task: Name the recorded inhibition at 50 µM of the item O=c1c(O[C@@H]2O[C@H](CO)[C@@H](O)[C@H](O)[C@H]2O)c(-c2ccc(O)c(O)c2)oc2cc(O)cc(O)c12 in your answer.
Output: 78.9

Task: Consider the molecule O=c1cc(-c2ccc(O)c(O)c2)oc2cc(O)c(C3OC(CO)C(O)C(O)C3O)c(O)c12 [compound 18, Luteolin-6-C-β-D-glucoside] and give its recorded inhibition at 50 µM.
Output: 78.4

Task: Entry O=c1cc(-c2ccc(O)c(O)c2)oc2c(C3OCC(O)C(O)C3O)c(O)c(C3OC(CO)C(O)C(O)C3O)c(O)c12 (stereo not drawn) needs its inhibition at 50 µM filled in; supply it.
Output: 75.8
